Tested on: L. donovani HU3 strain in mouse peritoneal macrophages
experimental details: Assay for inhibition of parasitemia of Leishmania donovani in mouse macrophages (SYBR Green nuclei count, high-content imaging)
Type: cell-based
protocol conditions: Leishmania donovani, Peritoneal macrophage, L. donovani in mouse peritoneal macrophages; read-out: L. donovani in Mouse Macrophages EC50
reported endpoint: pEC50
Give bare numbers, as −log10 of the molar value.

>>> print(df.to_string())
                                   molecule  endpoint_value
0  CC(C)OC(=O)Nc1cnc2nn(-c3cc(NC(=O)c4ccco4)ccc3F)cc2c1 [Compound 123]            8.05

For the 6 molecules below, give their pEC50 values.
1. O=C(Nc1ccc(F)c(-n2cc3cc(-c4ccccn4)cnc3n2)c1)[C@@H]1C[C@H]1F (single isomer, unassigned) [Compound 256]
2. CCNc1cnc2nn(-c3cc(NC(=O)N4CC(F)C4)ccc3F)cc2c1 [Compound 199]
3. CC1(C)CN(c2cnc3nn(-c4cc(NC(=O)N5CC(F)C5)ccc4F)cc3c2)C1 [Compound 255]
4. O=C(Nc1ccc(F)c(-n2cc3cc(N4CCC5(CC5)C4)cnc3n2)c1)N1CCC2(CC2)C1 [Compound 242]
5. O=C(Nc1ccc(F)c(-n2cc3cc(-c4ccccn4)cnc3n2)c1)c1ccco1 [Compound 64]
6. CC(C)c1cnc2nn(-c3cc(NC(=O)OCCC(F)(F)F)ccc3F)cc2c1 [Compound 174]

7.42
7.68
7.55
6.97
8.41
5.57
